target-under-test: CXCR7 receptor (Homo sapiens (Human))
Sequence (P25106 whole entry): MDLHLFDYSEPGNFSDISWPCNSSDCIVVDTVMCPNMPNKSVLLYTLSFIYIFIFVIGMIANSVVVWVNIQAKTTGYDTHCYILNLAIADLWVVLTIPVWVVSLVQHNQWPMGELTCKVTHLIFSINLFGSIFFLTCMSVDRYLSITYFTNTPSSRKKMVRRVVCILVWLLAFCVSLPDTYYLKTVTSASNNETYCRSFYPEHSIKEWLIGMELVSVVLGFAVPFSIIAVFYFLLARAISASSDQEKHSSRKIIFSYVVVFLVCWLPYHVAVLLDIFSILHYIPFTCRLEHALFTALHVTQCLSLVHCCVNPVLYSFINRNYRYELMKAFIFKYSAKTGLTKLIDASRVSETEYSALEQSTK
assay-notes: Serum Binding Analysis: displacement of 125I-labeled SDF-1 from CXCR7 in 100% human serum
setup-conditions: 125I SDF-1 displacement in 100% human serum, MCF-7 and/or MDA-MB-435S CXCR7 transfected cells, 3 hrs at 4° C.; read-out: Avg Ser IC50
pIC50: −log10 of the molar value.
measurement-type: pIC50

Below are worked cases with known answers.
compound	pIC50
O=C(N[C@H]1CCN(c2nccn3nccc23)C1)c1ncn(-c2ccccc2)n1	4.82 to 5.60
O=C(N[C@H]1CCN(c2nccn3cnnc23)C1)c1ncn(-c2ccccc2)n1	≥ 6.30
Cc1ccccc1-c1nc(C(=O)N[C@H]2CCN(c3nccn4ccnc34)C2)cs1	≥ 6.30

Request: I have this compound here, O=C(N[C@H]1CCN(c2nccn3cnnc23)C1)c1csc(N2CCC(O)CC2)n1 , and I need its recorded pIC50.
Result: ≥ 6.30

Request: I have this compound here, O=C(N[C@H]1CCN(c2nccn3cccc23)C1)c1cn(-c2ccccc2)cn1 , and I need its recorded pIC50.
Result: ≥ 6.30

Request: I have this compound here, Cc1ccc2nc(C(=O)N[C@H]3CCN(c4nccn5cnnc45)C3)ncc2c1 , and I need its recorded pIC50.
Result: ≥ 6.30

Request: I have this compound here, Cc1ccn2ccnc(N3CC[C@H](NC(=O)c4ncc(-c5ccccc5)cn4)C3)c12 , and I need its recorded pIC50.
Result: 5.60 to 6.30

Request: I have this compound here, O=C(N[C@H]1CCN(c2nccn3ccnc23)C1)c1ccn(-c2ccc(Cl)cc2)n1 , and I need its recorded pIC50.
Result: ≥ 6.30

Request: I have this compound here, Cc1cn2cccc2c(N2CC[C@H](NC(=O)c3csc(N4CCCC4)n3)C2)n1 , and I need its recorded pIC50.
Result: ≥ 6.30

Request: I have this compound here, O=C(N[C@H]1CCN(c2nccn3cnnc23)C1)c1cn(-c2ccccc2)cn1 , and I need its recorded pIC50.
Result: ≥ 6.30

Request: I have this compound here, O=C(N[C@H]1CCN(c2nccn3ccnc23)C1)c1ncn(-c2ccc(F)cc2)n1 , and I need its recorded pIC50.
Result: ≥ 6.30
